Reference source for all entries: patent US9840481B2

# measurementTarget: human α7 nAChR stably expressed in a HEK cell line (with human RIC-3) (Homo sapiens)
# Construct: PrecisION hnAChR α7/RIC-3
# Sequence (P36544 23-502): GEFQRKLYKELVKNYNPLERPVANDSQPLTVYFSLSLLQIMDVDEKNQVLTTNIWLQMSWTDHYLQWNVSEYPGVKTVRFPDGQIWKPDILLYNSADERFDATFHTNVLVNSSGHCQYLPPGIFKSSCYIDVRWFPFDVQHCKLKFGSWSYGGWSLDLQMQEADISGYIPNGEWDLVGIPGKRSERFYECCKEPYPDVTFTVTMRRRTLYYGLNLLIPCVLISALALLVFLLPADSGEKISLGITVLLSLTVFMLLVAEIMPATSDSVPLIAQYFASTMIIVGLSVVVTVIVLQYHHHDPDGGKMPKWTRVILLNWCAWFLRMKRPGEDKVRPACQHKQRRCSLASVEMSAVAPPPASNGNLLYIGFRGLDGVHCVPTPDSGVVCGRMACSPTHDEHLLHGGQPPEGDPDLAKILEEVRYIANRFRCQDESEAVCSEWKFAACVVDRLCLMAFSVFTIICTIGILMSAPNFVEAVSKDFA
# test: Automated patch-clamp electrophysiology functional assay (Assay A), IonFlux HT, whole-cell population patch
# Assay type: cell-based
# studyConditions: electrophysiology EC50, HEK cells expressing human α7/RIC-3, 40 μM acetylcholine, holding potential −60 mV, room temperature; read-out: α7 nAChR EC50
recordedEndpoint: EC50 (nM)
Express the result in nM but write the number alone.

Give EC50 for the following molecule: "NS(=O)(=O)c1ccc([C@@H]2C[C@H]2c2nc(-c3cc(F)ccc3F)no2)cc1"
160

Give the reported EC50 for this molecule. CC(C)c1nsc(C2CC2c2ccc(S(N)(=O)=O)cc2)n1 (single isomer, unassigned; enantiomer b)
380

Tell me its EC50 given "CC1(C)[C@@H](c2ccc(S(N)(=O)=O)cc2)[C@@H]1c1noc(-c2c[nH]c(C3CC3)n2)n1" as the entry.
4400

Note down EC50 recorded for CC1(C)[C@@H](c2ccc(S(N)(=O)=O)cc2)[C@@H]1c1noc(C2CC(O)C2)n1 (some centres unmarked)
3800

Please look at this molecule and report its EC50: "CC1(C)[C@H](c2ccc(S(N)(=O)=O)cc2)[C@H]1c1nc(CC2CC2)no1"
3000

For the molecule "NS(=O)(=O)c1ccc([C@@H]2C[C@H]2c2nc(-c3ccccc3)no2)cc1" , give its reported EC50.
120

In one line, give reported EC50 of the entry NS(=O)(=O)c1ccc(C2CC2c2coc(-c3ccccc3)n2)cc1 (centres unmarked) .
2400

Identify measured EC50 associated with "CC1(C)[C@H](c2ccc(S(N)(=O)=O)cc2)[C@H]1c1nnc(-c2c(F)cccc2C(F)(F)F)o1"
4700
